- assay_remarks: AUC(0 to last) in male Sprague-Dawley rat at 10 mg/kg, po incubated for 24 hrs by LC-MS/MS analysis
- Type: ADME, organism-based
- Design: dose 10 mg/kg, time 24 hrs, route po
- test_settings: in vivo
parameter_measured: AUC(0-t) at 24 h (ng·h/mL)

1) O=c1nc(NC2CC2)n2ccc(C(F)(F)F)cc2c1-c1cccnc1F :: 16200

----------
- assay_remarks: Half life in ICR mouse plasma at 10 mg/kg, IG measured after 24 hrs by LC-MS/MS analysis
- Type: ADME, organism-based
- test_settings: po
Reported half-life values follow for various compounds
parameter_measured: half-life (h)

1. O=c1nc(NC2CC2)n2ccc(C(F)(F)F)cc2c1-c1cccc(O)c1F :: 7.7
2. O=c1nc(NC2CC2)n2ccc(C(F)(F)F)cc2c1-c1cccnc1F :: 3.3

----------
- assay_remarks: Half life in male Sprague-Dawley rat plasma at 10 mg/kg, po incubated for 24 hrs by LC-MS/MS analysis
- Type: ADME, organism-based
parameter_measured: half-life

1. O=c1nc(NC2CC2)n2ccc(C(F)(F)F)cc2c1-c1cccnc1F :: 3 h

----------
- experimental_system: Cytochrome P450 2D6 (Homo sapiens, UniProt P10635)
- Sequence (P10635 whole entry): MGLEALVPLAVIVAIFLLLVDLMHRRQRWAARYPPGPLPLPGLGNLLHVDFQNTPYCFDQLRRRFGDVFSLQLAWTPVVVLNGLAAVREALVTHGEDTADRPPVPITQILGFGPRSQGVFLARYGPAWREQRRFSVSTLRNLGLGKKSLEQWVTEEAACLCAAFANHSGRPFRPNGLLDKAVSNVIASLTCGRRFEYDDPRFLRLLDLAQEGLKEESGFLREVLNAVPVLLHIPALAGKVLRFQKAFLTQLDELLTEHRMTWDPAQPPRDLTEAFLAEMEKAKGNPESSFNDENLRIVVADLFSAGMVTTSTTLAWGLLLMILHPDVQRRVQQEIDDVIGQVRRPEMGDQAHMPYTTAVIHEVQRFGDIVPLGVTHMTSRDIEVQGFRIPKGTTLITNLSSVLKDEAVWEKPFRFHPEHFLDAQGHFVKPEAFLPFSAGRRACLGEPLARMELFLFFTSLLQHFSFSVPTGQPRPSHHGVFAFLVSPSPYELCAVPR
parameter_measured: IC50

1. O=c1nc(NC2CC2)n2ccc(C(F)(F)F)cc2c1-c1cccnc1F :: > 10 µM

----------
- assay_remarks: Tmax in ICR mouse plasma at 10 mg/kg, IG measured after 24 hrs by LC-MS/MS analysis
- Format: ADME, organism-based
- test_settings: po
Reported Tmax values follow for various molecules
parameter_measured: Tmax (min)

1. O=c1nc(NC2CC2)n2ccc(C(F)(F)F)cc2c1-c1cccnc1F :: 40.2
2. O=c1nc(NC2CC2)n2ccc(C(F)(F)F)cc2c1-c1cccc(O)c1F :: 19.8

----------
- assay_remarks: Metabolic stability in human liver microsomes assessed as intrinsic clearance
- Format: ADME, Microsome
- test_settings: read-out: CLH
parameter_measured: CLint scaled (mL/min/kg)

1. O=c1nc(NC2CC2)n2ccc(C(F)(F)F)cc2c1-c1cccnc1F :: 1.4

----------
- assay_remarks: AUClast in male Beagle dog at 3 mg/kg, po incubated for 24 hrs by LC-MS/MS analysis
- Format: ADME, organism-based, Canis lupus familiaris
- Parameters: dose 3 mg/kg, time 24 hrs, route po
- test_settings: in vivo
parameter_measured: AUC(0-t) at 24 h

1) O=c1nc(NC2CC2)n2ccc(C(F)(F)F)cc2c1-c1cccnc1F :: 9310 ng·h/mL

----------
- experimental_system: S-adenosylmethionine synthase isoform type-2 (Homo sapiens)
- Sequence (P31153 whole entry, canonical isoform): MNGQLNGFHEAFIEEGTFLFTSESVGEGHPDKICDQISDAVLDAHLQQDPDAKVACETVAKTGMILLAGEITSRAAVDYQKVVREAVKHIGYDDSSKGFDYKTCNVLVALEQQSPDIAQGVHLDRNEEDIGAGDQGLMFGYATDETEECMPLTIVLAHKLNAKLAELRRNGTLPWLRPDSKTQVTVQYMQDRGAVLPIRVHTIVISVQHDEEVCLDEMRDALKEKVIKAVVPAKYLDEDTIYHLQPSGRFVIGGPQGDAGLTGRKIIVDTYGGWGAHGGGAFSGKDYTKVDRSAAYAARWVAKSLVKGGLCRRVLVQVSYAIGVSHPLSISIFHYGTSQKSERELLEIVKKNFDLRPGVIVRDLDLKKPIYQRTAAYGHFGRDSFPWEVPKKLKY
- assay_remarks: Inhibition of MAT2A (unknown origin) using L-methionine as substrate preincubated for 30 mins followed by substrate addition measured after 60 mins by colorimetric assay
pIC50: −log10 of the molar value.
parameter_measured: pIC50

1. O=C(C1CC1)N1CC(=O)N(c2ccccc2Cl)c2cc(C(F)(F)F)ccc21 :: 5.59
2. O=c1nc(NC2CC2)n2ccc(C(F)(F)F)cc2c1-c1ccccc1F :: 6.92
3. CNc1nc(=O)c(-c2cccc(C)c2)c2cc(C(F)(F)F)ccn12 :: 7.22
4. CNc1nc(=O)c(-c2ccccc2C(C)C)c2cc(C(F)(F)F)ccn12 :: 7.17
5. CNc1nc(=O)c(-c2ccc(C)cc2)c2cc(C(F)(F)F)ccn12 :: 6.46
6. CNc1nc(=O)c(-c2cccc(F)c2)c2cc(C(F)(F)F)ccn12 :: 7.38
7. CNc1nc(=O)c(-c2c(F)cccc2F)c2cc(C(F)(F)F)ccn12 :: 7.19
8. O=c1nc(NC2CC2)n2ccc(C(F)(F)F)cc2c1-c1cccc(O)c1F :: 7.51
9. O=c1nc(N[C@H]2C[C@H](O)C2)n2ccc(C(F)(F)F)cc2c1-c1ccccc1F :: 6.72
10. O=c1nc(NC2CCC2)n2ccc(C(F)(F)F)cc2c1-c1ccccc1F :: 6.92
11. CNc1nc(=O)c(-c2ccccc2Cl)c2cc(C3CC3)ccn12 :: 7.28
12. CNc1nc(=O)c(-c2ccccc2)c2cc(C(F)(F)F)ccn12 :: 7.19
13. O=c1nc(NC2CC2)n2ccc(C(F)(F)F)cc2c1-c1cccnc1F :: 7.40
14. CNc1nc(=O)c(-c2ccccc2Cl)c2cc(C(F)(F)F)ccn12 :: 7.31
15. CNc1nc(=O)c(-c2cccc(Cl)c2)c2cc(C(F)(F)F)ccn12 :: 6.97
16. CC(C)Nc1nc(=O)c(-c2ccccc2F)c2cc(C(F)(F)F)ccn12 :: 7.10
17. O=c1nc(NC2CC2)n2ccc(C(F)(F)F)cc2c1-c1cccc(F)c1 :: 7.34
18. CNc1nc(=O)n(-c2ccccc2Cl)c2cc(C(F)(F)F)sc12 :: 6.57
19. CNc1nc(=O)c(-c2cccc(C#N)c2)c2cc(C(F)(F)F)ccn12 :: 6.70
20. O=c1nc(NCC(F)F)n2ccc(C(F)(F)F)cc2c1-c1ccccc1F :: 6.92
21. CNc1nc(=O)c(-c2ccccc2Cl)c2cc(C)ccn12 :: 6.84

----------
Reported Cmax values follow for various compounds
- assay_remarks: Cmax in ICR mouse plasma at 10 mg/kg, IG measured after 24 hrs by LC-MS/MS analysis
- Assay type: ADME, organism-based
- Design: dose 10 mg/kg, time 24 hrs, route ig
- test_settings: po
parameter_measured: Cmax (ng/mL)

1. O=c1nc(NC2CC2)n2ccc(C(F)(F)F)cc2c1-c1cccc(O)c1F :: 3960
2. O=c1nc(NC2CC2)n2ccc(C(F)(F)F)cc2c1-c1cccnc1F :: 16200

----------
- experimental_system: UniProt P33261
- Sequence (P33261 whole entry): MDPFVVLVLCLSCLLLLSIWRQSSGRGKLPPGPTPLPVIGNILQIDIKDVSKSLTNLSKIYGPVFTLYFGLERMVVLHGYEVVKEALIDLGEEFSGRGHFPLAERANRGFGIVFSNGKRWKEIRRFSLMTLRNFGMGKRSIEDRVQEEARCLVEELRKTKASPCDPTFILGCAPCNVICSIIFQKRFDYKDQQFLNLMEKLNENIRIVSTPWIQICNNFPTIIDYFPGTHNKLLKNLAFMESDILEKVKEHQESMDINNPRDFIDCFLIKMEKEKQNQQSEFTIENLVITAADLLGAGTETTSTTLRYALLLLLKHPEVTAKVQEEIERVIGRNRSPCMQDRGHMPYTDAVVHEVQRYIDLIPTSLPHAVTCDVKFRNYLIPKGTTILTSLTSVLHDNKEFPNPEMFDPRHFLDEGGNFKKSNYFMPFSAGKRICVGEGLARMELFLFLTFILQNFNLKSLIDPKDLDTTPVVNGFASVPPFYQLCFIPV
parameter_measured: IC50

1. O=c1nc(NC2CC2)n2ccc(C(F)(F)F)cc2c1-c1cccnc1F :: > 10 µM

----------
- assay_remarks: Plasma protein binding in dog assessed as unbound fraction at 1 uM incubated for 6 hrs by LC-MS/MS based rapid equlibrium dialysis method
- Type: ADME, cell-free, Canis lupus familiaris
parameter_measured: fraction unbound at 6 h, 1 µM

1. O=c1nc(NC2CC2)n2ccc(C(F)(F)F)cc2c1-c1cccnc1F :: 0.325

----------
- assay_remarks: Half life in male Beagle dog at 3 mg/kg, po incubated for 24 hrs by LC-MS/MS analysis
- Assay type: ADME, organism-based, Canis lupus familiaris
- test_settings: in vivo
parameter_measured: half-life

1) O=c1nc(NC2CC2)n2ccc(C(F)(F)F)cc2c1-c1cccnc1F :: 2.6 h

----------
- assay_remarks: Cmax in male Sprague-Dawley rat plasma at 10 mg/kg, po incubated for 24 hrs by LC-MS/MS analysis
- Type: ADME, organism-based
- Parameters: time 24 hrs, dose 10 mg/kg, route po
parameter_measured: Cmax (ng/mL)

1) O=c1nc(NC2CC2)n2ccc(C(F)(F)F)cc2c1-c1cccnc1F :: 2820

Measured values drawn from ChEMBL document CHEMBL5390303 for this set.
